system: Wnt signalling pathway; test: Wnt-sensitive reporter gene assay (6xTCF-luciferase, pTOP-FLASH) in Hek293T cells; type: cell-based; conditions: Homo sapiens, HEK-293T; Hek293T, 24 h incubation, 5 nM-100 microM; read-out: IC50 of the Wnt signalling pathway inhibiting activity
Result type: pIC50
Kindly note that pIC50 refers to -log10 of the concentration in mol/L and answer with the value alone.

# Compound, Assayed system, pIC50
rows = [
    ("CCOC(=O)C1=C(C)Nc2c(c3nnc(-c4cccc(OC)c4)n3c(=O)n2-c2ccccc2)C1c1ccccc1 (stereo not drawn)", "Wnt signalling pathway", 5.87),
    ("CCOC(=O)C1=C(c2ccccc2)c2c(n(-c3ccccc3)c(=O)n3c(-c4ccc(OC)cc4)nnc23)NC1C (stereo not drawn)", "Wnt signalling pathway", 4.66),
]

Now for the compound whose pIC50 we want.
Read the entry CCOC(=O)C1=C(c2ccccc2)c2c(n(-c3ccccc3)c(=O)n3c(-c4cccc(OC)c4)nnc23)NC1C (stereo not drawn) and write its reported pIC50.
5.53
